assay: PK analysis: Cmax and AUC from PK models fitted to serum and ISF concentrations; format: in vivo, Male Sprague Dawley rats; conditions: male, Sprague Dawley, rat, in vivo, iv, 45 mg/kg, VAN, Rat # 2, dose 45 mg/kg i.v.; read-out: ISF AUC (converted)
assay readout: AUC (µM·h)
Give a bare numeral; the unit µM·h is implied.

Task: Report AUC for CN[C@H](CC(C)C)C(=O)N[C@H]1C(=O)N[C@@H](CC(N)=O)C(=O)N[C@H]2C(=O)N[C@H]3C(=O)N[C@H](C(=O)N[C@H](C(=O)O)c4cc(O)cc(O)c4-c4cc3ccc4O)[C@H](O)c3ccc(c(Cl)c3)Oc3cc2cc(c3O[C@@H]2O[C@H](CO)[C@@H](O)[C@H](O)[C@H]2O[C@H]2C[C@](C)(N)[C@H](O)[C@H](C)O2)Oc2ccc(cc2Cl)[C@H]1O please.
Output: 51.3

Just for reference, paper PMC11538706 is where these values come from.
